Molecular target: PHF8 (KDM7) (Homo sapiens, UniProt Q9UPP1)
Sequence (Q9UPP1 whole entry): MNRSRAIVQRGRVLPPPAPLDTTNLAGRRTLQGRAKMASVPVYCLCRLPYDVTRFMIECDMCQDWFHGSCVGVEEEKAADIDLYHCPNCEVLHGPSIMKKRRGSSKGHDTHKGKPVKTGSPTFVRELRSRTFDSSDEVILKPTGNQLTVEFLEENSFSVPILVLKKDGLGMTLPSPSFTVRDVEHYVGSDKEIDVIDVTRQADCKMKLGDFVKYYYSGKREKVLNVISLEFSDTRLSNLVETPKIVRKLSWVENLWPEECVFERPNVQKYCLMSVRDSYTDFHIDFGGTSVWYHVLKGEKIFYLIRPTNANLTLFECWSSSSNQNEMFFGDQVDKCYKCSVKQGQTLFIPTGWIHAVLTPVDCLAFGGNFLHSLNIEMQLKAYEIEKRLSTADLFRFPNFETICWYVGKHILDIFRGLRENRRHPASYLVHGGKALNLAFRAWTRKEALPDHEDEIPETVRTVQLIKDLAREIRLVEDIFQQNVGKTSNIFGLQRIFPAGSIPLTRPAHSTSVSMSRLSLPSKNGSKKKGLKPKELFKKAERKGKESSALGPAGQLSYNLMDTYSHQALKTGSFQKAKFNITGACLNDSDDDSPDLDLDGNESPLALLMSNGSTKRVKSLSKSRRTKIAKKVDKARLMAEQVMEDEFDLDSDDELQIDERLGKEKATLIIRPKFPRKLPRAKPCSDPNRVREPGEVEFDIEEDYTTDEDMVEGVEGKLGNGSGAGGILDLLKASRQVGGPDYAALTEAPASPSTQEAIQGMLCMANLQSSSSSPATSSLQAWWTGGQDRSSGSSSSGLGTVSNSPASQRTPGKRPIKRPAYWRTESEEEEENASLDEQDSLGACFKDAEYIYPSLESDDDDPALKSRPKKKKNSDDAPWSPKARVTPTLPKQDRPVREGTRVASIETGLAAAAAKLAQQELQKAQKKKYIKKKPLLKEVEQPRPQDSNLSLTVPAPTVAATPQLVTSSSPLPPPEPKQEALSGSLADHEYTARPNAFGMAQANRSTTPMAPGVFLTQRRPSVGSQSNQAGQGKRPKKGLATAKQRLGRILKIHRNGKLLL
pIC50: −log10 of the molar value.
Reported pIC50 by item:

Answered cases to consult:
> print(dat)
                                   compound  reportedmeasurement
1  CCN(CC)C(=O)CCN(CCC(=O)N(CC)CC)Cc1cc(C(=O)O)ccn1 [Compound 32]               < 5.60
2  COCC(=O)Nc1ccccc1CNC(=O)[C@H](CC(C)C)NCc1cc(C(=O)O)ccn1 [Compound 12]         5.60 to 6.60
3  CC(C)(C)c1nc2ccccn2c1CNCc1cc(C(=O)O)ccn1 [Compound 88]               > 6.60
4  CC(N[C@@H](C)c1nccs1)c1cc(C(=O)O)ccn1 (some centres unmarked) [Compound 28]         5.60 to 6.60

# next compound below
INPUT: Let me know recorded pIC50 for NC(=O)CCN(CC(=O)N1CCCCC1)Cc1cc(C(=O)O)ccn1 [Compound 34] , thanks.
OUTPUT: 5.60 to 6.60

====

Reported IC50 by item:
Target: PHF8 (KDM7) (Homo sapiens, UniProt Q9UPP1)

> print(dat)
                                   compound  reportedmeasurement
1  CCc1ccnc2c1CCC2NCc1cc(C(=O)O)ccn1 (stereo not drawn)             < 250 nM
2  C=CCN(CC=C)C(=O)[C@H](CCCCNC(=O)NC(C)(C)C)NCc1cc(C(=O)O)ccn1            > 2500 nM

INPUT: Let me know recorded IC50 for COc1ccc([C@@H](C)N2CC[C@@H](CNCc3cc(C(=O)O)ccn3)C2=O)cc1 , thanks.
OUTPUT: < 250 nM

INPUT: Let me know recorded IC50 for CCN1CC[C@@H](CNCc2cc(C(=O)O)ccn2)C1=O , thanks.
OUTPUT: < 250 nM

INPUT: Let me know recorded IC50 for CC(C)C[C@H](NCc1cc(C(=O)O)ccn1)C(=O)NCC1CCS(=O)(=O)C1 (stereo partly drawn) , thanks.
OUTPUT: 250 to 2500 nM

INPUT: Let me know recorded IC50 for O=C(O)c1ccnc(CNC2CCc3c(CCc4ccccc4)ccnc32)c1 (stereo not drawn) , thanks.
OUTPUT: < 250 nM

INPUT: Let me know recorded IC50 for O=C(O)c1ccnc(CNC2CCCn3ccnc32)c1 (stereo not drawn) , thanks.
OUTPUT: < 250 nM

INPUT: Let me know recorded IC50 for Cc1cn2c(n1)CCN(Cc1cc(C(=O)O)ccn1)CC2 , thanks.
OUTPUT: 250 to 2500 nM

INPUT: Let me know recorded IC50 for COc1ccc([C@@H](C)N2CCC[C@@H](CNCc3cc(C(=O)O)ccn3)C2=O)cc1 , thanks.
OUTPUT: 250 to 2500 nM

====

Biological target: KDM2B (FBXL10) (Homo sapiens)
Sequence (Q8NHM5 1-650): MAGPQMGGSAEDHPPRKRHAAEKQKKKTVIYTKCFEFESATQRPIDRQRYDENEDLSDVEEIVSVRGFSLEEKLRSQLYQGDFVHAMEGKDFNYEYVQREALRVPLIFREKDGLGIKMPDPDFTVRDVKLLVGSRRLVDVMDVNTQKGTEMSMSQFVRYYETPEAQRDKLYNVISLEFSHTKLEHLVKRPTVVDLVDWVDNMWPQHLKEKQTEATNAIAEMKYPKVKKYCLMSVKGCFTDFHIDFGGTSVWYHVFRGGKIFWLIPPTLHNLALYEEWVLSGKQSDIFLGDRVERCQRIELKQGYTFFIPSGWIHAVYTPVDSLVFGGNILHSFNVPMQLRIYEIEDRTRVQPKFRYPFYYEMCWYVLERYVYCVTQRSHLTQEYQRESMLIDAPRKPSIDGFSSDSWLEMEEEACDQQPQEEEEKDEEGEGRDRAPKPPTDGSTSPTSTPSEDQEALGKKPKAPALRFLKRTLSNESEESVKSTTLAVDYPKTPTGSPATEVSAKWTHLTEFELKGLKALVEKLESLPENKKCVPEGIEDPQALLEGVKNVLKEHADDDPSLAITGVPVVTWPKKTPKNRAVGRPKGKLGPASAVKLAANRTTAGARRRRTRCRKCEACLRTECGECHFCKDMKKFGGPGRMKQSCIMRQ
pIC50: −log10 of the molar value.
observable: pIC50

Answered cases to consult:
> print(dat)
                                   compound  observable  reportedmeasurement
1  O=C(O)c1ccnc(CNCC(=O)N2CCCCC2)n1 [Compound 23]       pIC50         5.60 to 6.60
2  CC(C)(C)OC(=O)NCCCC[C@@H](CO)NCc1cc(C(=O)O)ccn1 [Compound 22]       pIC50               > 6.60
3  O=C(O)c1ccnc(CN2CCCCC2CO)c1 (stereo not shown) [Compound 66]       pIC50         5.60 to 6.60
4  O=C(N1CC2(CC2)COC1c1ccnc(CN2CCCn3ccnc3C2)c1)C(F)(F)F (stereo not shown) [Compound 108]       pIC50         5.60 to 6.60
5  C=CCc1cnc2c(c1)CCC2NCc1cc(C(=O)O)ccn1 (stereo not shown) [Compound 95]       pIC50               > 6.60
6  C=CCN(CC=C)C(=O)[C@@H](CCC(N)=O)NCc1cc(C(=O)O)ccn1 [Compound 25]       pIC50         5.60 to 6.60

INPUT: State the measured pIC50 (KDM2B (FBXL10) (Homo sapiens)) of CCc1ccnc2c1CCC2NCc1cc(C(=O)O)ccn1 (stereo not shown) [Compound 97]
OUTPUT: > 6.60

INPUT: State the measured pIC50 (KDM2B (FBXL10) (Homo sapiens)) of C[C@H](c1ccccc1)N1CCC[C@H](CNCc2cc(C(=O)O)ccn2)C1=O [Compound 2]
OUTPUT: > 6.60

INPUT: State the measured pIC50 (KDM2B (FBXL10) (Homo sapiens)) of COc1ccc([C@@H](C)N2CC[C@@H](CNCc3cc(C(=O)O)ccn3)C2=O)cc1 [Compound 78]
OUTPUT: > 6.60

INPUT: State the measured pIC50 (KDM2B (FBXL10) (Homo sapiens)) of CC(C)C[C@H](NCc1cc(C(=O)O)ccn1)C(=O)NCc1ccccc1NC(=O)C1CC1C (stereo partly shown) [Compound 7]
OUTPUT: 5.60 to 6.60

INPUT: State the measured pIC50 (KDM2B (FBXL10) (Homo sapiens)) of CCN(CC)C(=O)CC(C)NCc1cc(C(=O)O)ccn1 (stereo not shown) [Compound 43]
OUTPUT: 5.60 to 6.60

INPUT: State the measured pIC50 (KDM2B (FBXL10) (Homo sapiens)) of CC(NCC(=O)N1CCCCC1)c1cc(C(=O)O)ccn1 (stereo not shown) [Compound 48]
OUTPUT: 5.60 to 6.60

INPUT: State the measured pIC50 (KDM2B (FBXL10) (Homo sapiens)) of CCN(CC)C(=O)CCN(CCNC(C)=O)Cc1cc(C(=O)O)ccn1 [Compound 27]
OUTPUT: 5.60 to 6.60

INPUT: State the measured pIC50 (KDM2B (FBXL10) (Homo sapiens)) of C=CCN(CC=C)C(=O)[C@@H](CCS(C)(=O)=O)NCc1cc(C(=O)O)ccn1 [Compound 37]
OUTPUT: > 6.60

====

Target: KDM6A (UTX) (Homo sapiens, UniProt O15550)
Sequence (O15550 919-1401): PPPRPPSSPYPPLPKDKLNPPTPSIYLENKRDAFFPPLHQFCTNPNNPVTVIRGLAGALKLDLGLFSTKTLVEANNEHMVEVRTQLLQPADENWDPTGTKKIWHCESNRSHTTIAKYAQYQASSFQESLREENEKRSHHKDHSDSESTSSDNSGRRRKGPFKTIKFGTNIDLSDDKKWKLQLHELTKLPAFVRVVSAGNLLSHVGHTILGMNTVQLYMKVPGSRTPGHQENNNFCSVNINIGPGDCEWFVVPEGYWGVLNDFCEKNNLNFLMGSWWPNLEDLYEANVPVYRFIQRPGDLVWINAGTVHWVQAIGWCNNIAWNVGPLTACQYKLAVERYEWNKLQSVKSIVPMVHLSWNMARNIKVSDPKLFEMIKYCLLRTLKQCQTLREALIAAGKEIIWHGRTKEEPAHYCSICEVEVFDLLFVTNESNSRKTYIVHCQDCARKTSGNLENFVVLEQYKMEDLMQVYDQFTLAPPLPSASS
pIC50: −log10 of the molar value.
Reported pIC50 by item:

> print(dat)
                                   compound  observable  reportedmeasurement
1  CC(C)(C)OC(=O)NCCCC[C@@H](CO)NCc1cc(C(=O)O)ccn1 [Compound 22]       pIC50               < 5.60
2  C[C@H](N[C@H](C)c1cc(C(=O)O)ccn1)C(=O)NCc1ccc(CO)cc1 [Compound 16]       pIC50               < 5.60
3  CCN1CC[C@H](CNCc2cc(C(=O)O)ccn2)C1=O [Compound 106]       pIC50               < 5.60

INPUT: State the measured pIC50 (KDM6A (UTX) (Homo sapiens, UniProt O15550)) of O=C(O)c1ccnc(CN2CCn3ccnc3C2)c1 [Compound 52]
OUTPUT: < 5.60

INPUT: State the measured pIC50 (KDM6A (UTX) (Homo sapiens, UniProt O15550)) of CC(N[C@@H](C)C(=O)NCc1ccncc1)c1cc(C(=O)O)ccn1 (stereo partly drawn) [Compound 15]
OUTPUT: < 5.60

INPUT: State the measured pIC50 (KDM6A (UTX) (Homo sapiens, UniProt O15550)) of CC(N[C@H](C)c1nccs1)c1cc(C(=O)O)ccn1 (stereo partly drawn) [Compound 30]
OUTPUT: < 5.60

INPUT: State the measured pIC50 (KDM6A (UTX) (Homo sapiens, UniProt O15550)) of COc1ccc([C@@H](C)N2CCC[C@H](CNCc3cc(C(=O)O)ccn3)C2=O)cc1 [Compound 81]
OUTPUT: < 5.60

INPUT: State the measured pIC50 (KDM6A (UTX) (Homo sapiens, UniProt O15550)) of COc1ccc([C@@H](C)N2CC[C@@H](CNCc3cc(C(=O)O)ccn3)C2=O)cc1 [Compound 78]
OUTPUT: < 5.60

INPUT: State the measured pIC50 (KDM6A (UTX) (Homo sapiens, UniProt O15550)) of CC(C)C[C@H](CO)NC(C)c1cc(C(=O)O)ccn1 (stereo partly drawn) [Compound 33]
OUTPUT: < 5.60

INPUT: State the measured pIC50 (KDM6A (UTX) (Homo sapiens, UniProt O15550)) of O=C(O)c1ccnc(CN2CCCC[C@@H]2CC(=O)N2CCCCC2)c1 [Compound 72]
OUTPUT: < 5.60

INPUT: State the measured pIC50 (KDM6A (UTX) (Homo sapiens, UniProt O15550)) of O=C(O)c1ccnc(CNCc2nccn2C/C=C/c2ccccc2)c1 [Compound 13]
OUTPUT: < 5.60

INPUT: State the measured pIC50 (KDM6A (UTX) (Homo sapiens, UniProt O15550)) of C=CCN(CC=C)C(=O)[C@H](CCCCN(C)C(C)=O)NCc1cc(C(=O)O)ccn1 [Compound 21]
OUTPUT: < 5.60

INPUT: State the measured pIC50 (KDM6A (UTX) (Homo sapiens, UniProt O15550)) of C[C@H](c1ccccc1)N1CCC[C@H](CNCc2cc(C(=O)O)ccn2)C1=O [Compound 2]
OUTPUT: < 5.60

INPUT: State the measured pIC50 (KDM6A (UTX) (Homo sapiens, UniProt O15550)) of O=C(O)c1ccnc(CNCc2cccnc2)c1 [Compound 84]
OUTPUT: < 5.60

INPUT: State the measured pIC50 (KDM6A (UTX) (Homo sapiens, UniProt O15550)) of C=CCN(CC=C)C(=O)[C@@H](CC(=O)NCC1CC1)NCc1cc(C(=O)O)ccn1 [Compound 18]
OUTPUT: < 5.60
